# TARGET ENTITY: T1, full length human tau protein 2N4R (hT40) (human, UniProt P10636 1-758)
# T1 construct: recombinant; also called T441
# T1 sequence (P10636 other isoform, or with tags, fused parts or gaps limits assumed): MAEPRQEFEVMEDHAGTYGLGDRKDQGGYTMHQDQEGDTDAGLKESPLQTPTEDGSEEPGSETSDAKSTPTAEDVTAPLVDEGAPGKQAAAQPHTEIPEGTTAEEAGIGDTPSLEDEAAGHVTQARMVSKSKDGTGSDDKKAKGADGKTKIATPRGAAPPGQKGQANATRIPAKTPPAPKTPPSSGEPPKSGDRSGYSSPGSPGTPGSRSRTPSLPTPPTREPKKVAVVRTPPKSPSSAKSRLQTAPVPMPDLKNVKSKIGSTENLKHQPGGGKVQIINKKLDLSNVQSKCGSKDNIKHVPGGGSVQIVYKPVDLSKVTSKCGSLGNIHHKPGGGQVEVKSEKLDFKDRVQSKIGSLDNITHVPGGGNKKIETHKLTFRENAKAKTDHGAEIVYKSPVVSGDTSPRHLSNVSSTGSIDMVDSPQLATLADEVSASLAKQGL
# PROTOCOL DESCRIPTION: SPR, hT40 immobilised, mAb analyte
Quick rule for you: koff at 0.002 s⁻¹ or higher means fulfilled, lower means not fulfilled.

{"columns": ["BINDER", "LABEL VALUE"],
 "data": [
  ["CE2 mAb (antibody, mouse IgG2a, V domains shown, sheep-mouse IgG2a chimeric mAb) VH: QVQLQESGPSLVKPSQTLSLTCTVSGFSLTNYPVGWVRQAPGKALEWIGNIENDGSANYASALKSRLSITRDTSKNQVSLSLSSATTEDTAVYYCGREFGGSDGYTYFVDIDYWGPGLLVTVSS VL: QAVLTQPSSVSKSLGQSVSITCSGSSSNVGYGNYVSWFQQVPGSAPKILIYGATSRASGVPDRFSGSRSGNTATLTITSLQAEDEADYYCASYDGSSSGVFGSGTRLTVLG", "fulfilled"],
  ["CE3 mAb (antibody, mouse IgG2a, V domains shown, sheep-mouse IgG2a chimeric mAb) VH: QVRLQESGPSLVKPSQTLSVTCTVSGFSLISNAVGWVRQAPGKVPESLAGCSSDGKCYYNSALKSRLDITRDTSKNQISLSLSSVTTDDAAVYYCTRGYYPVYGYDYLGTIDYWGPGLLVTVSS VL: QAVLTQPSSVSGSLGQRVSITCSGSSSNVGRNDVAWFQQLPGSGLRTIIYGTTSRPSGIPDRFSGSKSGVTATLTIDSLQAEDEADYFCASGDSSAINDIFGSGTRLTVLG", "not fulfilled"],
  ["CA4 mAb (antibody, mouse IgG2a, V domains shown, sheep-mouse IgG2a chimeric mAb; also called CA4 antibody) VH: QVQLQESGPSLVKPSQTLSLTCTVSGFSLTSYSVYWVRQAPGQALEWISIMYASGRVDYNPALKSRLSITRDTSKSQFSLSLSSVTTEDTAVYYCTRGIENWGPGLLVTVSS VL: DIQVTQSPSSLSASLTERVSITCRTSQSVNNYLSWYQQKPGQAPKLLIYYATRLYTDVPSRFSGSGSGTDYTLTITSLEADDTATYYCLQYDSTPLAFGGGTNVEIKG", "not fulfilled"],
  ["S1D12 mAb (antibody, mouse IgG2a, V domains shown, sheep-mouse IgG2a chimeric mAb; also called S1D12 antibody; SD12) VH: QVQLQESGPSLVKPSQTLSLTCTVSGFSLNNNAVGWVRQAPGKVPESLVGCSSDGTCYYNSALKSRLDITRDTSKNQISLSLSSVTTDDAAVYYCTRGHYSIYGYDYLGTIDYWGPGLLVTVSS VL: QAVLTQPSSVSGSLGQRVSITCSGSSSNVGGGNSVGWYQHLPGSGLKTIIYDTNSRPSGVPDRFSGSRSGNTATLTINSLQAEDEGDYYCVTGDSTTHDDLVGSGTRLTVLG", "not fulfilled"],
  ["CC7 mAb (antibody, mouse IgG2a, V domains shown, sheep-mouse IgG2a chimeric mAb; also called CC7 antibody) VH: QVQLQESGPSLVKPSQTLSLTCTVSGFSLTSNAVIWVRQAPGKAPEWVALIDVDGDAAYDPALKSRLSITRDTSKSQVSLSLRSVTTEDTAVYYCARDYGSWGYVSDIDYWGPGLLVTVSS VL: RVVRTQPSSVSGSLGQRVSITCSGSYITGSSVGWFQQVPGSGLKTVIYDNNDRPSGVPDRFSGSKSGDTATLTISSLQAEDEADYYCASYDTSNIGLFGSGTRLTVLG", "fulfilled"]
]}
